All figures here come from a collection of fitness landscapes (doi:10.1126/science.1257360).

B1: PhoQ; a variant is named by its letters at X, in order, P23837 (parent)
chain: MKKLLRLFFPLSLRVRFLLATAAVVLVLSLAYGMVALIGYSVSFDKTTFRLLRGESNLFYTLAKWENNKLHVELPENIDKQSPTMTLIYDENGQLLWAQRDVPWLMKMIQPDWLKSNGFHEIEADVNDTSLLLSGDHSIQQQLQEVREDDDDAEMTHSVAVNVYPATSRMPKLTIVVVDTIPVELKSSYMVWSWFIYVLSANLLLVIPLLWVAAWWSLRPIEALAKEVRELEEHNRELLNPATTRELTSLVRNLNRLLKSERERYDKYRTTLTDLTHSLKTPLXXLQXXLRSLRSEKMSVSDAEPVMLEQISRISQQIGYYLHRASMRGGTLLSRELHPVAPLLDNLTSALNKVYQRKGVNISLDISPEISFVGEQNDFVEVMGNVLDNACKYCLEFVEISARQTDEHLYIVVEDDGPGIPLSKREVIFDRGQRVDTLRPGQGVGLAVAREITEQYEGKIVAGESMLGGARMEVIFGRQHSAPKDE

# Variants of: B1
# assayText: enrichment ratio after two sorts for PhoP signalling (ratio (wild type AVST 3.29)); higher = more functional
# conditionsUsed: with PhoP (E. coli)
Over roughly 140,000 sequences, “enrichment ratio after two sorts for PhoP signalling” has its median near 0; the highest 2% begin near 11. Many of the other results were omitted from the sample, so the highest values are more common in it than they were.
Each entry below carries its recorded enrichment ratio.

mutationDescriptor	enrichment ratio
KCAF	≤ 0.25
VRML	≤ 0.25
KAGY	≤ 0.25
KMAF	≤ 0.25
PTML	≤ 0.25
HNWM	≤ 0.25
WIAF	≤ 0.25
SDDK	≤ 0.25
MIAF	14
NQCN	≤ 0.25
MAML	25.7
MPYR	≤ 0.25
MAKL	≤ 0.25
TAYI	10.2
MFTT	≤ 0.25
MMAF	13
NWYY	≤ 0.25
SYLH	0.355
NAGY	≤ 0.25
AKVG	≤ 0.25
KSLH	≤ 0.25
MEML	12
WIVC	≤ 0.25
VKML	≤ 0.25
MAAF	≤ 0.25
WQPN	≤ 0.25
TCLH	1.39
LFMM	≤ 0.25
NETT	≤ 0.25
PWTA	≤ 0.25
TCIM	0.447
MFPC	≤ 0.25
KKVC	≤ 0.25
TETT	25.2
MKML	≤ 0.25
TQCN	24.9
TCTM	21.1
FAML	6.33
ISLD	≤ 0.25
AKVC	15.3
QETT	≤ 0.25
SRAF	≤ 0.25
TAAY	15.7
MSAF	3.4
TEML	28.6
HTHM	≤ 0.25
